Exercise: for every item that follows, state its recorded viability, T/C.
- Tested on: KRAS-mutant PDC tumor spheroid with HUVEC/MSC, viability;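 further: spheroids exposed to agents for seven days before reading; 100% = DMSO vehicle wells so lower means fewer viable cells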
- Procedure Text: Anticancer human tumor 327498-153-R-J2-PDC patient-derived uterine carcinosarcoma cell line growth inhibition [KRAS2]
- Run Parameters: second compound 0.316 µM; first compound 0.1 µM; stronger effect = lower value
Number in %, nothing else.

**Query** Fill in the recorded viability, T/C for this compound, with KRAS-mutant PDC tumor spheroid with HUVEC/MSC, viability as test system: CC1(C)CCC(CN2CCN(c3ccc(C(=O)NS(=O)(=O)c4ccc(NCC5CCOCC5)c([N+](=O)[O-])c4)c(Oc4cnc5[nH]ccc5c4)c3)CC2)=C(c2ccc(Cl)cc2)C1 + CC1OCC2(CCN(c3cnc(Sc4ccnc(N)c4Cl)c(N)n3)CC2)C1N
**Result** 48.5

**Query** Fill in the recorded viability, T/C for this compound, with KRAS-mutant PDC tumor spheroid with HUVEC/MSC, viability as test system: CC(C)NCC(C(=O)N1CCN(c2ncnc3c2C(C)CC3O)CC1)c1ccc(Cl)cc1 (stereo not given) + CNCc1ccccc1-c1csc(C(C)Nc2nc(C)nc3cc(OC)c(OC)cc23)c1
**Result** 55.1

**Query** Fill in the recorded viability, T/C for this compound, with KRAS-mutant PDC tumor spheroid with HUVEC/MSC, viability as test system: CC(=O)OC12COC1CC(O)C1(C)C(=O)C(O)C3=C(C)C(OC(=O)C(O)C(NC(=O)OC(C)(C)C)c4ccccc4)CC(O)(C(OC(=O)c4ccccc4)C21)C3(C)C (stereo not given) + COc1cc2nc(C)nc(NC(C)c3cc(N)cc(C(F)(F)F)c3)c2cc1OC1CCOC1
**Result** 6.66

**Query** Fill in the recorded viability, T/C for this compound, with KRAS-mutant PDC tumor spheroid with HUVEC/MSC, viability as test system: CC(C)NCC(C(=O)N1CCN(c2ncnc3c2C(C)CC3O)CC1)c1ccc(Cl)cc1 (stereo not given) + COc1cc2nc(C)nc(NC(C)c3cc(N)cc(C(F)(F)F)c3)c2cc1OC1CCOC1
**Result** 49.5

**Query** Fill in the recorded viability, T/C for this compound, with KRAS-mutant PDC tumor spheroid with HUVEC/MSC, viability as test system: Cn1ncnc1[C@H]1c2n[nH]c(=O)c3cc(F)cc(c23)N[C@@H]1c1ccc(F)cc1 + CC1OCC2(CCN(c3cnc(Sc4ccnc(N)c4Cl)c(N)n3)CC2)C1N
**Result** 15.6
